These data points were gathered from ChEMBL document CHEMBL1687938.

Exercise: state measured hepatocyte CLint for each of the compounds provided.
Assay: Metabolic stability in rat hepatocytes assessed as intrinsic clearance measured per 10^6 cells

QUERY: Please report the recorded hepatocyte CLint for `O=C(O)COc1ccc(Cl)cc1CN1CCN(S(=O)(=O)c2ccc(F)cc2)CC1` .
RESULT: < 3 µL/min/1e6 cells

QUERY: Please report the recorded hepatocyte CLint for `O=C(O)COc1ccc(C(F)(F)F)cc1CN1CCN(C(=O)c2ccccc2)CC1` .
RESULT: < 3 µL/min/1e6 cells

QUERY: Please report the recorded hepatocyte CLint for `O=C(O)COc1ccc(C(F)(F)F)cc1CN1CCN(S(=O)(=O)c2ccccc2)CC1` .
RESULT: < 4 µL/min/1e6 cells

QUERY: Please report the recorded hepatocyte CLint for `C[C@H]1CN(Cc2cc(Cl)ccc2OCC(=O)O)CCN1C(=O)Cc1ccc(F)cc1` .
RESULT: < 3 µL/min/1e6 cells

QUERY: Please report the recorded hepatocyte CLint for `C[C@H]1CN(Cc2cc(Cl)ccc2OCC(=O)O)CCN1C(=O)Cc1ccc(Cl)cc1` .
RESULT: < 3 µL/min/1e6 cells

QUERY: Please report the recorded hepatocyte CLint for `C[C@H]1CN(Cc2cc(C(F)(F)F)ccc2OCC(=O)O)CCN1C(=O)Cc1ccc(F)cc1` .
RESULT: < 3 µL/min/1e6 cells
